test: solvent given as SMILES; conditions: in CC#N
Some compounds, each annotated with its measured absorption maximum.
ASSAY_READOUT: absorption maximum (nm)

INSERT INTO measurements (compound, assay_readout, recorded_result) VALUES
  ('Cc1cc(-c2ccccc2)nc2c1ccc1nc(-c3ccccc3)cn12', 'absorption maximum', 347),
  ('N#Cc1ccc(-n2cccc2)cc1', 'absorption maximum', 287),
  ('O=C(N/N=C/c1ccccc1O)c1ccccc1', 'absorption maximum', 333),
  ('N#C/C(=C/Nc1ccc(C#N)cc1)c1nc(-c2ccccc2)cs1', 'absorption maximum', 372),
  ('CSc1ccc(/C=C/c2cnc3ccccc3n2)cc1', 'absorption maximum', 377),
  ('c1ccc2c(c1)c1ccccc1n2-c1ccc(-c2ccc(-n3c4ccccc4c4ccccc43)nc2-n2c3ccccc3c3ccccc32)nn1', 'absorption maximum', 335),
  ('F[B-]1(F)N2C(=Nc3cccc4cccc2c34)c2cccc[n+]21', 'absorption maximum', 350),
  ('COc1nc(Nc2ccc3ccc4cccc5ccc2c3c45)nc(OC)n1', 'absorption maximum', 340),
  ('CC(=O)[B-]1(C(C)=O)OC(c2ccccc2)=CC(c2ccc3ccccc3c2)=[O+]1', 'absorption maximum', 400),
  ('CN(C)c1ccc(/C=C/c2nc3c(ccc4ccccc43)s2)cc1', 'absorption maximum', 409),
  ('C[P+]1(c2ccccc2)c2ccccc2-c2sc3ccccc3c21 (stereo unspecified)', 'absorption maximum', 335);
